# SYSTEM TESTED: Na+, K+-ATPase from pig kidney microsomal membranes (Sus scrofa, UniProt P05024)
# Construct: Na^+, K^+-ATPase from pig kidney microsomal membranes was purified by differential centrifugation; from tissue; host or cells: pig kidney microsomal membranes
# TEST: Na+,K+-ATPase inhibition assay (residual ATP hydrolysis after 2 h preincubation with inhibitor)
# Format: biochemical
# RECORDED CONDITIONS: magnitude of high-affinity component of the inhibition curve
Each entry below lists one item and its recorded percentage of high-affinity component (Fhigh) value.
READOUT NAME: percentage of high-affinity component (Fhigh) (%)

>  <COMPOUND>
C[C@]12CC[C@](O)(C(F)(F)F)C[C@H]1CC[C@@H]1[C@@H]2CC[C@]2(C)[C@@H](c3ccc(=O)oc3)CC[C@]12O [Compound 6α]

>  <VAL>
65

$$$$
>  <COMPOUND>
CON(C1CCC2(C)C(CCC3C2CCC2(C)C(c4ccc(=O)oc4)CCC32O)C1)C1OC(CO)C(O)C(O)C1O (stereo not drawn) [Compound 5β]

>  <VAL>
76

$$$$
>  <COMPOUND>
C[C@]12CC[C@@](O)(C(F)(F)F)C[C@H]1CC[C@@H]1[C@@H]2CC[C@]2(C)[C@@H](c3ccc(=O)oc3)CC[C@]12O [Compound 6β]

>  <VAL>
64

$$$$
>  <COMPOUND>
CON([C@@H]1CC[C@@]2(C)[C@H](CC[C@@H]3[C@@H]2CC[C@]2(C)[C@@H](c4ccc(=O)oc4)CC[C@]32O)C1)[C@@H]1O[C@H](CO)[C@@H](O)[C@H](O)[C@H]1O [Compound 5α]

>  <VAL>
98

$$$$
>  <COMPOUND>
CON[C@@H]1CC[C@@]2(C)[C@H](CC[C@@H]3[C@@H]2CC[C@]2(C)[C@@H](c4ccc(=O)oc4)CC[C@]32O)C1 [Compound 4α]

>  <VAL>
90

$$$$

---

# SYSTEM TESTED: Na+, K+-ATPase from pig kidney microsomal membranes (Sus scrofa, UniProt P05024)
# Construct: Na^+, K^+-ATPase from pig kidney microsomal membranes was purified by differential centrifugation; from tissue; host or cells: pig kidney microsomal membranes
# TEST: Na+,K+-ATPase inhibition assay (residual ATP hydrolysis after 2 h preincubation with inhibitor)
# Type: biochemical
# RECORDED CONDITIONS: KDiss,low, low-affinity component; value in mM
READOUT NAME: Kd

>  <COMPOUND>
CON[C@H]1CC[C@@]2(C)[C@H](CC[C@@H]3[C@@H]2CC[C@]2(C)[C@@H](c4ccc(=O)oc4)CC[C@]32O)C1 [Compound 4β]

>  <READOUT NAME>
Kd

>  <VAL>
> 1 mM

$$$$

---

# SYSTEM TESTED: Na+, K+-ATPase from pig kidney microsomal membranes (Sus scrofa)
# Construct: Na^+, K^+-ATPase from pig kidney microsomal membranes was purified by differential centrifugation; from tissue; host or cells: pig kidney microsomal membranes
# TEST: Na+,K+-ATPase inhibition assay (residual ATP hydrolysis after 2 h preincubation with inhibitor)
# Format: biochemical
# RECORDED CONDITIONS: Ki (dissociation constant of initial binding E + I ↔ E•I), derived from KDiss,high and KC
pKi: −log10 of the molar value.
Each entry below lists one item and its recorded pKi value.
READOUT NAME: pKi

>  <SMILES ENTRY>
CON[C@@H]1CC[C@@]2(C)[C@H](CC[C@@H]3[C@@H]2CC[C@]2(C)[C@@H](c4ccc(=O)oc4)CC[C@]32O)C1

>  <VAL>
4.19

$$$$
>  <SMILES ENTRY>
C[C@]12CC[C@](O)(C(F)(F)F)C[C@H]1CC[C@@H]1[C@@H]2CC[C@]2(C)[C@@H](c3ccc(=O)oc3)CC[C@]12O

>  <VAL>
4.37

$$$$
>  <SMILES ENTRY>
CON([C@@H]1CC[C@@]2(C)[C@H](CC[C@@H]3[C@@H]2CC[C@]2(C)[C@@H](c4ccc(=O)oc4)CC[C@]32O)C1)[C@@H]1O[C@H](CO)[C@@H](O)[C@H](O)[C@H]1O

>  <VAL>
2.72

$$$$
>  <SMILES ENTRY>
C[C@]12CC[C@@](O)(C(F)(F)F)C[C@H]1CC[C@@H]1[C@@H]2CC[C@]2(C)[C@@H](c3ccc(=O)oc3)CC[C@]12O

>  <VAL>
5.20

$$$$

---

Each entry below lists one item and its recorded Kd value.
# SYSTEM TESTED: Na+, K+-ATPase from pig kidney microsomal membranes (Sus scrofa, UniProt P05024)
# Construct: Na^+, K^+-ATPase from pig kidney microsomal membranes was purified by differential centrifugation; from tissue; host or cells: pig kidney microsomal membranes
# TEST: Na+,K+-ATPase inhibition assay (residual ATP hydrolysis after 2 h preincubation with inhibitor)
# Format: biochemical
# RECORDED CONDITIONS: KDiss,low, low-affinity component of inhibition curve; reflects ATPase assay medium

>  <COMPOUND>
CON(C1CCC2(C)C(CCC3C2CCC2(C)C(c4ccc(=O)oc4)CCC32O)C1)C1OC(CO)C(O)C(O)C1O (stereo not shown)

>  <RESULT UNIT>
µM

>  <Kd>
67.6

$$$$
>  <COMPOUND>
C[C@]12CC[C@@](O)(C(F)(F)F)C[C@H]1CC[C@@H]1[C@@H]2CC[C@]2(C)[C@@H](c3ccc(=O)oc3)CC[C@]12O

>  <RESULT UNIT>
µM

>  <Kd>
93.5

$$$$
>  <COMPOUND>
CON[C@@H]1CC[C@@]2(C)[C@H](CC[C@@H]3[C@@H]2CC[C@]2(C)[C@@H](c4ccc(=O)oc4)CC[C@]32O)C1

>  <RESULT UNIT>
µM

>  <Kd>
524

$$$$
>  <COMPOUND>
C[C@]12CC[C@](O)(C(F)(F)F)C[C@H]1CC[C@@H]1[C@@H]2CC[C@]2(C)[C@@H](c3ccc(=O)oc3)CC[C@]12O

>  <RESULT UNIT>
µM

>  <Kd>
242

$$$$

---

# SYSTEM TESTED: Na+, K+-ATPase from pig kidney microsomal membranes (Sus scrofa)
# Construct: Na^+, K^+-ATPase from pig kidney microsomal membranes was purified by differential centrifugation; from tissue; host or cells: pig kidney microsomal membranes
# TEST: Na+,K+-ATPase inhibition assay (residual ATP hydrolysis after 2 h preincubation with inhibitor)
# Format: biochemical
# RECORDED CONDITIONS: KC = Fhigh/Flow
Each entry below lists one item and its recorded KC (equilibrium constant E•I ↔ E•I*) value.

>  <COMPOUND>
CON(C1CCC2(C)C(CCC3C2CCC2(C)C(c4ccc(=O)oc4)CCC32O)C1)C1OC(CO)C(O)C(O)C1O (stereo not drawn) [Compound 5β]

>  <KC (equilibrium constant E•I ↔ E•I*)>
3.17

$$$$
>  <COMPOUND>
CON[C@@H]1CC[C@@]2(C)[C@H](CC[C@@H]3[C@@H]2CC[C@]2(C)[C@@H](c4ccc(=O)oc4)CC[C@]32O)C1 [Compound 4α]

>  <KC (equilibrium constant E•I ↔ E•I*)>
9.0

$$$$
>  <COMPOUND>
CON([C@@H]1CC[C@@]2(C)[C@H](CC[C@@H]3[C@@H]2CC[C@]2(C)[C@@H](c4ccc(=O)oc4)CC[C@]32O)C1)[C@@H]1O[C@H](CO)[C@@H](O)[C@H](O)[C@H]1O [Compound 5α]

>  <KC (equilibrium constant E•I ↔ E•I*)>
49

$$$$
>  <COMPOUND>
C[C@]12CC[C@@](O)(C(F)(F)F)C[C@H]1CC[C@@H]1[C@@H]2CC[C@]2(C)[C@@H](c3ccc(=O)oc3)CC[C@]12O [Compound 6β]

>  <KC (equilibrium constant E•I ↔ E•I*)>
1.78

$$$$
>  <COMPOUND>
CON[C@H]1CC[C@@]2(C)[C@H](CC[C@@H]3[C@@H]2CC[C@]2(C)[C@@H](c4ccc(=O)oc4)CC[C@]32O)C1 [Compound 4β]

>  <KC (equilibrium constant E•I ↔ E•I*)>
6.14

$$$$
>  <COMPOUND>
C[C@]12CC[C@](O)(C(F)(F)F)C[C@H]1CC[C@@H]1[C@@H]2CC[C@]2(C)[C@@H](c3ccc(=O)oc3)CC[C@]12O [Compound 6α]

>  <KC (equilibrium constant E•I ↔ E•I*)>
1.86

$$$$

---

# SYSTEM TESTED: Na+, K+-ATPase from pig kidney microsomal membranes (Sus scrofa, UniProt P05024)
# Construct: Na^+, K^+-ATPase from pig kidney microsomal membranes was purified by differential centrifugation; from tissue; host or cells: pig kidney microsomal membranes
# TEST: Na+,K+-ATPase inhibition assay (residual ATP hydrolysis after 2 h preincubation with inhibitor);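 note: enzyme preincubated with inhibitor in 40 mM Tris pH 7.0 containing 3 mM MgCl2 and 3 mM Na-phosphate, remaining activity measured as phosphate released from ATP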
# Type: biochemical
# RECORDED CONDITIONS: KDiss,high, high-affinity component of inhibition curve; preincubation 2 h, 37 °C, Mg2+ and Pi
Kd less than 7 µM is MET; Kd greater than or equal to 7 µM is NOT MET.

>  <COMPOUND>
CON[C@@H]1CC[C@@]2(C)[C@H](CC[C@@H]3[C@@H]2CC[C@]2(C)[C@@H](c4ccc(=O)oc4)CC[C@]32O)C1 [Compound 4α]

>  <CLASSIFICATION>
NOT MET

$$$$
>  <COMPOUND>
CON([C@@H]1CC[C@@]2(C)[C@H](CC[C@@H]3[C@@H]2CC[C@]2(C)[C@@H](c4ccc(=O)oc4)CC[C@]32O)C1)[C@@H]1O[C@H](CO)[C@@H](O)[C@H](O)[C@H]1O [Compound 5α]

>  <CLASSIFICATION>
NOT MET

$$$$
>  <COMPOUND>
CON(C1CCC2(C)C(CCC3C2CCC2(C)C(c4ccc(=O)oc4)CCC32O)C1)C1OC(CO)C(O)C(O)C1O (stereo not drawn) [Compound 5β]

>  <CLASSIFICATION>
MET

$$$$
>  <COMPOUND>
C[C@]12CC[C@](O)(C(F)(F)F)C[C@H]1CC[C@@H]1[C@@H]2CC[C@]2(C)[C@@H](c3ccc(=O)oc3)CC[C@]12O [Compound 6α]

>  <CLASSIFICATION>
NOT MET

$$$$
>  <COMPOUND>
CON[C@H]1CC[C@@]2(C)[C@H](CC[C@@H]3[C@@H]2CC[C@]2(C)[C@@H](c4ccc(=O)oc4)CC[C@]32O)C1 [Compound 4β]

>  <CLASSIFICATION>
MET

$$$$
>  <COMPOUND>
C[C@]12CC[C@@](O)(C(F)(F)F)C[C@H]1CC[C@@H]1[C@@H]2CC[C@]2(C)[C@@H](c3ccc(=O)oc3)CC[C@]12O [Compound 6β]

>  <CLASSIFICATION>
MET

$$$$
